Target: mouse ACVR2A (mouse, UniProt P27038 20-135, limits assumed); note: test concentration or dose not given here
Sequence (P27038 20-135 limits assumed): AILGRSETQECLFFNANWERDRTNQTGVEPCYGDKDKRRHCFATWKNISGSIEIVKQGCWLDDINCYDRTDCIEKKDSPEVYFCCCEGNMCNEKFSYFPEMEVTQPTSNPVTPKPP
Assay: ELISA
List of optical density values.
Respond with a number, then the unit of measure.

Please review the entries below; each comes with its answer.
366_E08 (antibody, V domains shown, Group III) VH: EVQLLESGGGLVQPGGSLRLSCAASGFTFSDYSMNWVRQAPGKGLEWVSNINYNGGYTSYADSVKGRFTISRDNSKNTLYLQMNSLRAEDTAVYYCARGANWHDTHLDYWGQGTLVTVSS VL: DIQMTQSPSSLSASVGDRVTITCRASQSIVTYLNWYQQKPGKAPKLLIYAATSRHSGVPSRFSGSGSGTDFTLTISSLQPEDFATYYCQQSYSNPLTFGGGTKVEIK: 2 OD
365_B12 (antibody, V domains shown, Group II) VH: EVQLLESGGGLVQPGGSLRLSCAASGFTFSDYGMHWVRQAPGKGLEWVSGINYNGGYTSYADSVKGRFTISRDNSKNTLYLQMNSLRAEDTAVYYCARAATWHDTHLDYWGQGTLVTVSS VL: DIQMTQSPSSLSASVGDRVTITCRASQSISTYVNWYQQKPGKAPKLLIYAVTSLHSGVPSRFSGSGSGTDFTLTISSLQPEDFATYYCQQSYDNPLTFGGGTKVEIK: 2.29 OD

Attention now shifts to the item below.
### Prompt Reported optical density, binder 374_A10 (antibody, V domains shown, Group II) VH: EVQLLESGGGLVQPGGSLRLSCAASGFTFSSYGMHWVRQAPGKGLEWVSGINYNGGYTSYADSVKGRFTISRDNSKNTLYLQMNSLRAEDTAVYYCARAATWHDTHLDYWGQGTLVTVSS VL: DIQMTQSPSSLSASVGDRVTITCRASQSILSYVNWYQQKPGKAPKLLIYAATSRASGVPSRFSGSGSGTDFTLTISSLQPEDFATYYCQQSYDTPLTFGGGTKVEIK : ____
### Response 3.59 OD

The reported measurements were obtained from patent US20210380703A1.
